Source listed as patent US9006450B2.

target: human ACC2 (Homo sapiens); construct: made in house; host or cells: insect cells (baculoviral expression system); assay: ACC2 assay, spectrophotometric 384 well assay (NADH-linked, coupled lactate dehydrogenase/pyruvate kinase); format: biochemical; conditions: ACC2 assay, hACC2 construct lacking 128 N-terminal amino acids, 25° C., 340 nm; read-out: IC50
Sequence (O00763 129-2458 limits assumed): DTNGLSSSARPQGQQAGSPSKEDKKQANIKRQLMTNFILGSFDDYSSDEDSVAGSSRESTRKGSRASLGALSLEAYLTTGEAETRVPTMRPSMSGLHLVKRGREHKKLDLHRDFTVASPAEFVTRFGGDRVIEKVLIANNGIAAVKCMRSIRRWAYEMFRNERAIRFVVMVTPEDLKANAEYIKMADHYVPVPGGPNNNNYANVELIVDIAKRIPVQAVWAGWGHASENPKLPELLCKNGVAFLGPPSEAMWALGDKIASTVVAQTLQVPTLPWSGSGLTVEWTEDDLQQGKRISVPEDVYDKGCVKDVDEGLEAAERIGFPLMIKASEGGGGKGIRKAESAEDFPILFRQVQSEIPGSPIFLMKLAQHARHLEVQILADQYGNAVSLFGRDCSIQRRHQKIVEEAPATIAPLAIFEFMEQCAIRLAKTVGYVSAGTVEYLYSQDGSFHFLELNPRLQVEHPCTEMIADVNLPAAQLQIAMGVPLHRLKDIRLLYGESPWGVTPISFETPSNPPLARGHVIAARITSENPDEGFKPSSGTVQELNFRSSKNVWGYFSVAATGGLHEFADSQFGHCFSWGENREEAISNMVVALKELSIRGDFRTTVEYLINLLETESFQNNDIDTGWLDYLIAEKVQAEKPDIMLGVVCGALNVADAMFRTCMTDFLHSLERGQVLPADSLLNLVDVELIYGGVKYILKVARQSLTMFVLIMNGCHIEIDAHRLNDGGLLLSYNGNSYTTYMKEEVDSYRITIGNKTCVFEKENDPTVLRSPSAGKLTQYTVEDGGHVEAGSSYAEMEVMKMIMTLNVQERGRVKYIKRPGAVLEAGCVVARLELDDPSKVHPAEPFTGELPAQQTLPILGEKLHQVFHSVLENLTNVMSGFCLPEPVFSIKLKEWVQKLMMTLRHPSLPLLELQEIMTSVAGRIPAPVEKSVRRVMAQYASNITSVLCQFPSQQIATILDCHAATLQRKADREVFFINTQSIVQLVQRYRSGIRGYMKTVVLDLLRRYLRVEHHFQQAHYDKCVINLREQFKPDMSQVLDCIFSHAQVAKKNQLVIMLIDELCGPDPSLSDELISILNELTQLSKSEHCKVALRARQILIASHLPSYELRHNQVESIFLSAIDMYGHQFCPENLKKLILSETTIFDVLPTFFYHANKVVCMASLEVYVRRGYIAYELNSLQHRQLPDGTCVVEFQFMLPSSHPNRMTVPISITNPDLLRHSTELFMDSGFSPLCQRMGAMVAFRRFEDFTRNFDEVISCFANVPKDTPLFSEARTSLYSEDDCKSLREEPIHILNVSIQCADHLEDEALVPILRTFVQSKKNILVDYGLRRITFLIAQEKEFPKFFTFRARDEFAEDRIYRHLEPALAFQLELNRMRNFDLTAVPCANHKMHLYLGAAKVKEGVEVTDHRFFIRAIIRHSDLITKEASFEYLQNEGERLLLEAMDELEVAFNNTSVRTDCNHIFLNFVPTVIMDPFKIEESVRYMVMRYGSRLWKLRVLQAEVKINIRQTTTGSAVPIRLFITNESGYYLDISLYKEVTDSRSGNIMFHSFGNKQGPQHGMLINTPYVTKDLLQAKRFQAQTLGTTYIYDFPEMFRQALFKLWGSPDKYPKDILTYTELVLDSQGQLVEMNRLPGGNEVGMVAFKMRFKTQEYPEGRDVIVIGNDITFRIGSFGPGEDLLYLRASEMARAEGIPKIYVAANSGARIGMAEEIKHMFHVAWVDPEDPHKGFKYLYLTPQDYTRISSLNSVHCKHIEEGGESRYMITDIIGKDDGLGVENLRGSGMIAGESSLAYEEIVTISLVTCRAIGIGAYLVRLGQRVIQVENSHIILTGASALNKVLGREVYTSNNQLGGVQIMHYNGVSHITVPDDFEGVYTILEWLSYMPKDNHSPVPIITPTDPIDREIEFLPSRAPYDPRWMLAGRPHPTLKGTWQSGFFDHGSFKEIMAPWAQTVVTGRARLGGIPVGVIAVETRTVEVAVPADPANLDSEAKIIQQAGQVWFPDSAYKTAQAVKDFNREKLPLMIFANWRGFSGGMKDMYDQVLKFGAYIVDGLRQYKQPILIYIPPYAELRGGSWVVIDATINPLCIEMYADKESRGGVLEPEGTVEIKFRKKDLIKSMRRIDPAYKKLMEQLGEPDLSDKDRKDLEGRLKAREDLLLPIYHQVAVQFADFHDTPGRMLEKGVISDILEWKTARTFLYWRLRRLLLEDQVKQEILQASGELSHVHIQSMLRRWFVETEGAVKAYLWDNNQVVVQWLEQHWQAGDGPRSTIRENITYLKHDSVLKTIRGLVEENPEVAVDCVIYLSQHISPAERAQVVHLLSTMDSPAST
readout-name: IC50 (nM)

compound: COCc1ccc(-c2cnc(N3CCC(c4ccc([C@H](C)NC(C)=O)cc4)CC3)nc2)cc1 [Example 10.32]
readout-name: IC50
reading: 410
--
compound: CC(=O)N[C@@H](C)c1ccc(C2CCN(c3cc(NCc4ccccn4)ncn3)CC2)cc1 [Example 11.67]
readout-name: IC50
reading: 26400
--
compound: CCOc1ccc(N2CCC(c3ccc([C@H](C)NC(=O)C4CC4)cc3)CC2)cc1 [Example 1.25]
readout-name: IC50
reading: 150
